# credit: paper PMC7281707

Test system: MDA-MB-231 breast cancer cells
Experiment: MTT cytotoxic activity assay on MDA-MB-231 breast cancer cells
Format: cell-based, human
Settings: Homo sapiens, MDA-MB-231, 24 h, MDA-MB-231, MTT, 24 h incubation; read-out: IC50 (Mean ± SEM)
Doc: threshold 70 µM (exclusive). Items with IC50 beneath it return true (1); others return false (0).

Compound | Category Label
C=C1CC[C@H]2C(=C)CC[C@H]3C(=C)C(=O)O[C@@H]3[C@@H]12 [Compound 1, dehydrocostus lactone] | true (1)

Input line: Is 70 µM strictly greater than the compound's reported IC50? compound: COc1cc(=O)oc2cc(O)cc(C)c12 [Compound 12, 7-demethylsiderin]
Output line: true (1)

Input line: hey, is IC50 for O=C1c2c(O)cccc2[C@](O)([C@@H]2O[C@H](CO)[C@@H](O)[C@H](O)[C@H]2O)c2cc(CO)cc(O)c21 [Compound 10, 10-hydroxy aloin A] lower than 70 µM or not?
Output line: false (0)

Input line: I wonder whether C[C@@H]1O[C@@H](OCc2cc(O)c3c(c2)[C@H]([C@@H]2O[C@H](CO)[C@@H](O)[C@H](O)[C@H]2O)c2cccc(O)c2C3=O)[C@H](O)[C@H](O)[C@H]1O [Compound 11, aloinoside B] has IC50 below 70 µM. Can you tell?
Output line: false (0)

Input line: # strict comparison: is reported IC50 < 70 µM? input = C=C1C(=O)OC2C1CCC(O)C1(C)CCC(C)(O)C21 (stereo not drawn) [Compound 3, lyciumate]
Output line: true (1)

Input line: Find out if reported IC50 for Cc1cc(O)c2c(c1)C(=O)c1cc(O)cc(O)c1C2=O [Compound 6, emodin] is less than 70 µM
Output line: false (0)

Input line: For Oc1cc(O)c2c(c1)O[C@H](c1ccc(O)c(O)c1)[C@@H](O)C2 [Compound 4, catechin] , is the recorded IC50 below the cut-off of 70 µM?
Output line: false (0)

Input line: Decide: IC50 of O=C(/C=C/c1ccccc1)O[C@@H]1O[C@H](CO)[C@@H](O)[C@H](O)[C@H]1OC(=O)c1cc(O)c(O)c(O)c1 [Compound 9, lyciumaside] strictly below 70 µM?
Output line: false (0)

Input line: Does C=C1C(=O)O[C@@H]2/C=C(\C)CC/C=C(\C)CC[C@@H]12 [Compound 2, costunolide] have IC50 strictly under 70 µM?
Output line: true (1)

Input line: Strictly below 70 µM: is that where IC50 of COc1cccc2c1C(=O)c1c(O)c3c(c(O)c1C2=O)C[C@@](O)(C(=O)CO)C[C@@H]3O[C@H]1C[C@H](N)[C@H](O)[C@H](C)O1 [Doxorubicin, reference compound] sits?
Output line: true (1)

* * *

Assay: MTT cytotoxic activity assay on MDA-MB-231 breast cancer cells
Format: cell-based, human
Details: human, MDA-MB-231 breast cancer cells; MDA-MB-231, 25 µM; read-out: cell viability
Measured viability at 24 h, 25 µM accompanies every entry in the list below.

Here's what some known entries look like.
Compound | viability at 24 h, 25 µM
C=C1C(=O)O[C@@H]2/C=C(\C)CC/C=C(\C)CC[C@@H]12 [Compound 2, costunolide] | 81 to 89%
CC1OC(OCc2cc(O)c3c(c2)C(=O)c2cccc(O)c2C3=O)C(O)C(O)C1O (centres unmarked) [Compound 8, aloe emodine 11-O-rhamnoside] | 81 to 89%
C=C1C(=O)OC2C1CCC(O)C1(C)CCC(C)(O)C21 (centres unmarked) [Compound 3, lyciumate] | 81 to 89%
O=C(/C=C/c1ccccc1)O[C@@H]1O[C@H](CO)[C@@H](O)[C@H](O)[C@H]1OC(=O)c1cc(O)c(O)c(O)c1 [Compound 9, lyciumaside] | 81 to 89%

# evaluate next
For C=C1CC[C@H]2C(=C)CC[C@H]3C(=C)C(=O)O[C@@H]3[C@@H]12 [Compound 1, dehydrocostus lactone] the compound record lists viability at 24 h, 25 µM as 76%
